Hey, just so you know, these numbers are from paper PMC9482650.

- SYSTEM UNDER TEST: T1, DLG3_1, Q92796
- T1 sequence (Q92796 125-227, limits assumed, looked up): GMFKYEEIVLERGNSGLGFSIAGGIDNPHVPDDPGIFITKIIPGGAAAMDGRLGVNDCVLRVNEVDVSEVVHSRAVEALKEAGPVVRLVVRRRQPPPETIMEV
- MEASUREMENT NOTES: holdup assay
- Parameters: key: below the threshold = too weak to quantify, mostly under pKd 3.1 to 4
- EXPERIMENTAL CONTEXT: plain residues with an end cap or a label only (N-terminal biotin on a linker: ado-ado)
Decide by pKd: equal to or exceeding 4 means Y, less means N.

INSERT INTO assay_data (binder, label) VALUES
  ('TPPAAKKSRI [BAZ1A, Q9NRL2]', 'N'),
  ('SAKVRTVTSV [RASL11B, Q9BPW5]', 'N'),
  ('VNKSKLLTDV [KCNA1, Q09470]', 'N'),
  ('RRRESYSTTV [EVI5, O60447]', 'Y'),
  ('RHGSCVETSL [TMEM151B, Q8IW70]', 'N'),
  ('KKMPSIESDV [GRIN2A, Q12879]', 'Y');
